biological target: adenosine A2A receptor (Homo sapiens (Human)); assay: Adenosine receptor activity assay (Table 1), A2A activity; type: biochemical; details: read-out: Ave A2A cAMP IC50
experimental.readout: IC50

Example entries and their recorded answers appear below.
[
  {
    "compound": "CC(=O)NC1CN(C(=O)c2nc(N[C@@H](C)c3cncc(F)c3)nc3cc(C)sc23)C1",
    "IC50": "100 to 500 nM"
  },
  {
    "compound": "C[C@H](Nc1nc(C(=O)N2CC(CNC(=O)OCC(C)(C)C)C2)c2sccc2n1)c1cncc(F)c1",
    "IC50": "10 to 50 nM"
  },
  {
    "compound": "Cc1cc2nc(N[C@@H](C)c3cncc(F)c3)nc(C(=O)N3CC(NC(=O)OCC(C)(C)C)C3)c2s1",
    "IC50": "< 10 nM"
  },
  {
    "compound": "C[C@H](Nc1nc(C(=O)N2CCN(C(=O)OC(C)(C)C)C2)c2sccc2n1)c1cccnc1",
    "IC50": "> 500 nM"
  },
  {
    "compound": "Cc1csc2c(C(=O)NCc3ccccc3)nc(N[C@@H](C)c3ccccn3)nc12",
    "IC50": "10 to 50 nM"
  }
]

Query for adenosine A2A receptor (Homo sapiens (Human)): what IC50 does the record show for C[C@H](Nc1nc(C(=O)N2CC(CN(C)C(=O)OC(C)(C)C)C2)c2sccc2n1)c1cncc(F)c1 ?
100 to 500 nM

# query: IC50 | item CNc1cc2nc(N[C@@H](C)c3cccnc3)nc(C(=O)N3CC[C@@H](O)C3)c2s1 | system: adenosine A2A receptor (Homo sapiens (Human))
> 500 nM

Provide value of IC50 for this record tested with adenosine A2A receptor (Homo sapiens (Human)): C[C@H](Nc1nc(C(=O)NCC2CCN(CCc3ccccc3)CC2)c2sccc2n1)c1ccccn1
> 500 nM

Form: Entry = C[C@H](O)CNC(=O)c1nc(N[C@@H](C)c2cccnc2)nc2cc(C(F)(F)F)sc12 | System = adenosine A2A receptor (Homo sapiens (Human)) | IC50 = ____
> 500 nM

---

molecular target: adenosine A2A receptor (Homo sapiens (Human), UniProt P29274); experiment: Adenosine receptor activity assay (Table 1), A2A activity; assay type: biochemical; details: read-out: Ave A2A cAMP IC50
Sequence (P29274 whole entry): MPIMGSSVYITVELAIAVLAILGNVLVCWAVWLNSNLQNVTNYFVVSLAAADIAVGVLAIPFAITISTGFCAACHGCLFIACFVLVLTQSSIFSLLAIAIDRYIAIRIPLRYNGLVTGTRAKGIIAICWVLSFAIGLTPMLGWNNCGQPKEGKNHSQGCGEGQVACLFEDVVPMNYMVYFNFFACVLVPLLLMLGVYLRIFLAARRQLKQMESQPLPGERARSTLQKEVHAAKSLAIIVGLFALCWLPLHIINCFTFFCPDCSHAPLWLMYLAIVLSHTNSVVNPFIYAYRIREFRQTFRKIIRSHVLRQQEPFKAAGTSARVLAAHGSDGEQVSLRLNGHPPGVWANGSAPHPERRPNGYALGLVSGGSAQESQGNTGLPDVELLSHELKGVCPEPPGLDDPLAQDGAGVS
experimental.readout: IC50

What IC50 value was documented for this compound, C[C@H](Nc1nc(C(=O)NCCC2CN(C(=O)OC(C)(C)C)C2)c2sccc2n1)c1ccccn1 ?
0.1 to 0.5 µM

Which IC50 is reported for this compound? CCNC(=O)CC1CN(C(=O)c2nc(N[C@@H](C)c3cncc(F)c3)nc3cc(C)sc23)C1
0.05 to 0.1 µM

Which IC50 is reported for this compound? Cc1cncc(CNc2nc(C(=O)N3CCC3)c3sccc3n2)c1
> 0.5 µM

Requested read-out: IC50. Entry: Cc1cc2nc(N[C@@H](C)c3cccnc3)nc(C(=O)N3CC[C@H](O)C3)c2s1
> 0.5 µM

---

target: adenosine A2A receptor (Homo sapiens (Human)); assay: Adenosine receptor activity assay (Table 1), A2A activity; format: biochemical; conditions: read-out: Ave A2A cAMP IC50
experimental.readout: IC50

Here is how some molecules turned out for IC50.
[
  {
    "molecule": "Cc1cc2nc(N[C@@H](C)c3cncc(F)c3)nc(C(=O)NCCC3CCN(C)CC3)c2s1 [Example Z562]",
    "IC50": "> 500 nM"
  },
  {
    "molecule": "COc1ccc(CNC(=O)c2nc(NCc3ccc(OC)nc3)nc3ccsc23)cn1 [Example Z12]",
    "IC50": "50 to 100 nM"
  },
  {
    "molecule": "COCC(Nc1nc(C(=O)N2CC[C@H](O)C2)c2sccc2n1)c1cccnc1 (some centres unmarked) [Example Z124]",
    "IC50": "> 500 nM"
  }
]

What IC50 value was documented for this molecule, C[C@H](Nc1nc(C(=O)N2CC[C@@H](O)C2)c2sccc2n1)c1ccccn1 [Example Z59] ?
100 to 500 nM

Recorded IC50 for O=C(c1nc(NCc2ccccn2)nc2ccsc12)N1CCCC1 [Example Z95] , please?
100 to 500 nM

What does the data say about its IC50? Entry: CNc1cc2nc(N[C@@H](C)c3cncc(F)c3)nc(C(=O)N3CC[C@@H](O)C3)c2s1 [Example Z224]
> 500 nM

Fill blank: measured IC50 of the molecule Cc1cc2nc(N[C@@H](C)c3cccnc3)nc(C(=O)N3CC(CN)C3)c2s1 [Example Z499] is ____.
> 500 nM

I have this molecule here, CC(C)(Nc1nc(C(=O)N2CCCC2)c2sccc2n1)c1cccnc1 [Example Z112] , and I need its recorded IC50.
> 500 nM
